- measurement_target: C-C chemokine receptor type 5 (Homo sapiens)
- Sequence (P51681 whole entry): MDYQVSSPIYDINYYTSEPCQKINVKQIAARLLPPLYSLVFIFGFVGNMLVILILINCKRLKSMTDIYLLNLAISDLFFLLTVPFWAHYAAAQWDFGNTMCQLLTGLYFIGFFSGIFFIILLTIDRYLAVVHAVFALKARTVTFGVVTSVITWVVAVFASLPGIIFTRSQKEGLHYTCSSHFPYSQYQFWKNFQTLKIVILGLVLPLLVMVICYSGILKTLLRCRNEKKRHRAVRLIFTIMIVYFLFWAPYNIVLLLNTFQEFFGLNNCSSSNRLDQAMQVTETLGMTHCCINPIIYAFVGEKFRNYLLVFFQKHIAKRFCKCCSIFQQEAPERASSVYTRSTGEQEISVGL
- assay_details: Calcium Flux Inhibition Experiment: 1. HEK293 cells which can stably express CCR5 were inoculated in a 96-well plate and incubated overnight.2. The medium in each well into which cells were innoculated was removed and 40 μl/well of freshly prepared dye was added. The plate was placed in a 37° C. incubator and incubated for 40 minutes at constant temperature.3. The medicament to be determined was diluted with calcium buffer to eight concentration gradients, which is 1×10−4 M, 1×10−5 M, 1×10−6 M, 1×10−7 M, 1×10−8 M, 1×10−9 M, 1×10−10 M, and 1×10−11 M, respectively, and homogeneously mixed.4. The dye was removed. Freshly prepared calcium buffer was used to wash for one time, 50 μl of calcium buffer was added.5. FlexStation II was used for detection. 25 μl of calcium buffer containing the medicament to be determined was added automatically from the 15th second. The fluorescence value at 525 nm was read ultimately.
endpoint: pIC50
pIC50 (log units): -log10 of the concentration in mol/L.

Previously resolved entries follow.
Cc1nnc(C(C)C)n1C1CC2CCC(C1)N2CC[C@H](NC(=O)C1CCC(F)(F)CC1)c1csc2ccccc12 (stereo partly drawn) = 7.94
Cc1nnc(C(C)C)n1C1CC2CCC(C1)N2CC[C@H](NC(=O)C1CCC(F)(F)CC1)c1ccc(C#N)s1 (stereo partly drawn) = 8.02
Cc1nnc(C(C)C)n1C1CC2CCC(C1)N2CC[C@H](NC(=O)C1CCC(F)(F)CC1)c1ccc(F)s1 (stereo partly drawn) = 8.03

What measured pIC50 goes with CC(=O)Nc1ccc([C@H](CCN2C3CCC2CC(n2c(C)nnc2C(C)C)C3)NC(=O)C2CCC(F)(F)CC2)s1 (stereo partly drawn) ?
8.08

What measured pIC50 goes with Cc1ccc([C@H](CCN2C3CCC2CC(n2c(C)nnc2C(C)C)C3)NC(=O)CC#N)s1 (stereo partly drawn) ?
8.08

What measured pIC50 goes with CCc1ccc([C@H](CCN2C3CCC2CC(n2c(C)nnc2C(C)C)C3)NC(=O)C2CCC(F)(F)CC2)s1 (stereo partly drawn) ?
8.33

What measured pIC50 goes with Cc1nnc(C(C)C)n1C1CC2CCC(C1)N2CC[C@H](NC(=O)C1CCC(F)(F)CC1)c1nccs1 (stereo partly drawn) ?
7.99

What measured pIC50 goes with Cc1nnc(C(C)C)n1C1CC2CCC(C1)N2CC[C@H](NC(=O)C1CCCCC1)c1ccc(C(=O)N(C)C)s1 (stereo partly drawn) ?
8.79

What measured pIC50 goes with Cc1ccc([C@H](CCN2C3CCC2CC(n2c(C)nnc2C(C)C)C3)NC(=O)C2CCC(F)(F)CC2)s1 (stereo partly drawn) ?
8.14

What measured pIC50 goes with CC(=O)Oc1ccc([C@H](CCN2C3CCC2CC(n2c(C)nnc2C(C)C)C3)NC(=O)C2CCCCC2)s1 (stereo partly drawn) ?
8.86

What measured pIC50 goes with Cc1nnc(C(C)C)n1C1CC2CCC(C1)N2CCC(NC(=O)C1CCC(F)(F)CC1)c1cccs1 (stereo not drawn) ?
8.71

What measured pIC50 goes with Cc1nnc(C(C)C)n1C1CC2CCC(C1)N2CC[C@H](NC(=O)C1CCC(F)(F)CC1)c1ccc(Cl)s1 (stereo partly drawn) ?
7.98

What measured pIC50 goes with CNC(=O)c1ccc([C@H](CCN2C3CCC2CC(n2c(C)nnc2C(C)C)C3)NC(=O)C2CCC(F)(F)CC2)s1 (stereo partly drawn) ?
7.86

The reported numbers originate from ChEMBL document CHEMBL5726069.
